- targetOrSystem: human CD33 E252A (human, UniProt P20138 18-364)
- Sequence (P20138 18-364 E252A limits assumed): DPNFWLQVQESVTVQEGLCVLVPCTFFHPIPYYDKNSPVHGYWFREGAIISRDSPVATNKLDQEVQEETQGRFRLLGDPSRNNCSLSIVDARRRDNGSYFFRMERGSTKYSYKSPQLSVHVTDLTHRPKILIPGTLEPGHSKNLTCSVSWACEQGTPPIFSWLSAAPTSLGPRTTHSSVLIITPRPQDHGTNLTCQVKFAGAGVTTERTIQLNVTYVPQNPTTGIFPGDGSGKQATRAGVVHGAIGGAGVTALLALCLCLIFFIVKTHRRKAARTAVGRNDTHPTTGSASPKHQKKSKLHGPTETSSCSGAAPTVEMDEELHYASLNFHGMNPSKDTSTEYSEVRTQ
- assayText: alanine scan, flow cytometry, HEK293-T;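 further: antibody binding to each alanine-substituted CD33 mutant expressed transiently in HEK293-T, read as fluorescence minus background, mean of duplicates, relative to wild-type CD33 set as 100%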
For each of the binders below, state its Mean % WT Binding.
Answers are plain numbers, in % WT binding.

Worked cases, Mean % WT Binding given:
- binder: "Refmab #1 (antibody, V domains shown, The alanine scan used IgG or Fab; also called hP67.6) VH: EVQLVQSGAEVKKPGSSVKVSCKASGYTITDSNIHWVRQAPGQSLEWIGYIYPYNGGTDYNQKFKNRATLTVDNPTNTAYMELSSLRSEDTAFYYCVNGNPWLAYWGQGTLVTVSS VL: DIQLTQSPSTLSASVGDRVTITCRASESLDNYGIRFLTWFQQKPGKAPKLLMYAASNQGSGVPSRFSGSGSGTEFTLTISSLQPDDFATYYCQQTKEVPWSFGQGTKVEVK"
  units: "% WT binding"
  Mean % WT Binding: 98.8
- binder: "Refmab #2 (antibody, V domains shown, The alanine scan used IgG or Fab) VH: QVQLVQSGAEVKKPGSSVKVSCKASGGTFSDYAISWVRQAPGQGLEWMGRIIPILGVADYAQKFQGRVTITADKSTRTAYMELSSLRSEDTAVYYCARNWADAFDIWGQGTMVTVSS VL: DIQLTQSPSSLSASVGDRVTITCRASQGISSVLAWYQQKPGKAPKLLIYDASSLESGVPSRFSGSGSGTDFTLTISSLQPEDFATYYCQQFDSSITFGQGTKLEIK"
  units: "% WT binding"
  Mean % WT Binding: 116
- binder: "Refmab #4 (antibody, V domains shown, The alanine scan used IgG or Fab) VH: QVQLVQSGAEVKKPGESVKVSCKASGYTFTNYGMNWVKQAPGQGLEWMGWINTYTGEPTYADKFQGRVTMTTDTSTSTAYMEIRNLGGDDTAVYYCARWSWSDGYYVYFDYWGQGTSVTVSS VL: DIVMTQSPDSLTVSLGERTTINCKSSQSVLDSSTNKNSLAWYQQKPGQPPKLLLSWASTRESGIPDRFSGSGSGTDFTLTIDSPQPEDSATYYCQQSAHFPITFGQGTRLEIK"
  units: "% WT binding"
  Mean % WT Binding: 115

Field Mean % WT Binding (entry Refmab #3 (antibody, V domains shown, The alanine scan used IgG or Fab) VH: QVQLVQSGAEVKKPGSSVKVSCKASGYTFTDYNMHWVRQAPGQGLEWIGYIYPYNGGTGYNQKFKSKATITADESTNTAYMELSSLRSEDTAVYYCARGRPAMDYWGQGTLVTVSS VL: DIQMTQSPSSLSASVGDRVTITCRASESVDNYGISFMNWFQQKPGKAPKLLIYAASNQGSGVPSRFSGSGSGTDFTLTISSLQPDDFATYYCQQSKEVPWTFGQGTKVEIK ) reads 96.3
